# credit: PubChem BioAssay (NCI)

# System: UACC-62 melanoma
# Assay overview: NCI-60 one-dose screen, 48 h (100 = growth as untreated, 0 = no growth, -100 = all killed)
# Condition notes: 10 µM unless noted
This is part of a sample that, as a whole, favours compounds with a hit. Of some 83,000 tested, about 20% had one in any assay.
Kindly supply the reported growth values for the records listed here.
Write down the numeric answer in % and omit the unit.

Input line: Give the reported growth for this compound. C#C[C@@]1(O)[C@@H](CO)O[C@@H](n2cc(Br)c3c(N)ncnc32)[C@@H]1O
Output line: 15.1

Input line: Give the reported growth for this compound. CC(C)(C)c1nc2c(s1)c1nc(N)ncc1c1ccc(NS(=O)(=O)c3c(F)cccc3F)c(F)c12
Output line: -2.66

Input line: Give the reported growth for this compound. CCOCc1cc(C(C)(C)C)ccc1O
Output line: 94.4

Input line: Give the reported growth for this compound. N#Cc1c(-c2ccc(F)cc2)nc(N/N=C/c2cccc(O)c2)nc1N1CCOCC1
Output line: 87.7

Input line: Give the reported growth for this compound. Cn1nc(C(F)(F)F)c(-c2cc(C(F)(F)F)cc(C(F)(F)F)c2)c1-c1ccc(OCc2ccc(Cl)cc2)cc1O
Output line: 3.02

Input line: Give the reported growth for this compound. O=C(CN1N=C(c2ccc(F)cc2)CCC1=O)Nc1nc2ccccc2s1
Output line: 79.6

Input line: Give the reported growth for this compound. CC(C)Cc1cc(CNC(=O)C2[C@H]3CN(C(=O)c4ccccc4)C[C@@H]23)nn1-c1ccccc1 (stereo partly drawn)
Output line: 88.2

Input line: Give the reported growth for this compound. O=CN1N=C(c2ccc(Cl)cc2)CC1c1cccc(Nc2ccnc3cc(C(F)(F)F)ccc23)c1 (stereo not drawn)
Output line: 63.7

Input line: Give the reported growth for this compound. Nc1c(C(=O)Nc2ccccc2Cl)sc2nc3c(cc12)CN(Cc1ccccc1)CC3
Output line: 101

Input line: Give the reported growth for this compound. COc1ccc(-c2cc(-c3nnc(SCC(=O)Nc4ccc(C(C)=O)cc4)o3)c3ccccc3n2)cc1
Output line: 25.8

Input line: Give the reported growth for this compound. C=C(C)[C@@H]1CC[C@]2(C(=O)O)CC[C@]3(C)[C@H](CC[C@@H]4[C@@]5(C)C[C@@H](CC#Cc6ccc(Cl)cc6)C(=O)C(C)(C)[C@@H]5CC[C@]43C)[C@@H]12
Output line: -20.2

Input line: Give the reported growth for this compound. CN(C)[C@@H]1C(=O)C(C(N)=O)=C(O)[C@@]2(O)C(=O)C3=C(O)c4c(O)cc(CN5CCc6ccccc6C5)c(Cl)c4C[C@H]3C[C@@H]12
Output line: -89.5

Input line: Give the reported growth for this compound. NC(=N\N=C\c1ccccc1O)/C(N)=N/N=C/c1ccccc1O
Output line: 68.9

Input line: Give the reported growth for this compound. Cc1ccc(CS/C(=C\c2ccc([N+](=O)[O-])cc2)C(=O)c2ccc(F)cc2)cc1
Output line: 30.9

Input line: Give the reported growth for this compound. Cc1c(Cl)cccc1NC(=O)c1sc2nc3c(cc2c1N)CCCCCC3
Output line: 32

Input line: Give the reported growth for this compound. CC(C)(C)c1nn(-c2ccccc2)c2c1COCN2Cc1ccc(Cl)cc1
Output line: 72.8

Input line: Give the reported growth for this compound. C#CCN1C(=O)c2ccccc2N(CC#C)C12CCN(Cc1cn(CC(=O)Nc3ccccc3C(N)=O)nn1)CC2
Output line: 74.3

Input line: Give the reported growth for this compound. O=C1NC(c2ccc(F)cc2)N=C2C(c3ccccc3)=NOC12 (stereo not drawn)
Output line: 102
